# Assay protocol: CREB reporter modulators without forskolin, primary screen, cell-based, PC12, CRE-LacZ reporter, unstimulated (AID 1145)
# Condition description: no forskolin, luminescence, 4.5 h, higher = more signal, called active from +8 up or from −8 down
Recorded z-score values for a group of compounds are listed next.
Lab note: record the figure alone, no unit after it.

Worked examples, 3 compounds total:
* COc1ccc([Si](C)(C)[C@H]2[C@H](CC(=O)N3Cc4ccccc4C[C@H]3CO)O[C@@]3(C(=O)N(Cc4cccc(N5CCOC5=O)c4)c4ccccc43)[C@@H]2C)cc1 | 5.51
* O=C(NCc1ccccc1)[C@@]1(Cc2ccccc2)COC(c2ccc(OCCCO)cc2)=N1 | -0.0157
* COC(=O)c1c(CC[C@@H](CO)NC(=O)N[C@H](Cn2cc(-c3cncn3C)nn2)C(C)C)oc(C(C)=O)c1C(=O)OC | 1.01

Continue with the next compound.
Enquiry: Entry O=C/C=C/c1ccc(/C=C/c2ccccc2)cc1 : reported z-score = ?
Return: -0.141
